Numbers sourced from BindingDB's records for doi:10.3109/14756366.2010.486793.

MEASURED TARGET: glutathione S-transferase (Plasmodium falciparum)
PROCEDURE TEXT: A range of natural products were screened for inhibition of PfGST by GST assay with CDNB as a substrate, using a 96-well SpectraMax 340 microplate spectrophotometer equipped with a kinetics mode (Molecular Devices, California). The final concentration of CDNB was 0.5 mM and of GSH was 1mM. Ethacrynic acid (ETA) and haemin were used as positive controls. The incub
IC50 values, listed per item
Number only, in µM; omit the unit.

C=Cc1c(OC=O)cc(O)c2c1OC(c1ccc(O)c(O)c1)C(O)C2 (stereo not drawn): 12

Here's the next entry for you.
Task: For C=C1C(=O)OC2/C=C(\COC(C)=O)CC/C=C(\CO)CC(OC(C)=O)[C@@H]12 (stereo partly drawn) [JB42C] , write its IC50.
Output: 8.5
